# METHOD SUMMARY: In vitro toxicity test (fluorimetric DNA assay, Hoechst)
# Type: cell-based, human
# ASSAY SETUP: human, IMR-32 neuroblastoma cells; 62.5 μg/ml; 48 h; Table 13; read-out: % survival
# Protocol: In vitro cytotoxicity testing of the peptides PRE 3, PRE 4 and PRE 5 (see Table 3) was conducted following the general protocol outlined below (modified from “Fluorimetric DNA assay for cell growth estimation” Rao J, Otto W., Analytical Biochem. 207:186-192, 1992). […] The results are shown in Tables 11-13 as the average relative fluorescence intensity measured for the 8 replica wells, as well as the percentage of survival as compared with matching untreated controls.
PROPERTY NAME: viability at 48 h, 62.5 µg/mL (%)
Express the result in % but write the number alone.

Looking up Ac-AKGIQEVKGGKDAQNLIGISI-NH2 [PRE 5] , I see its viability at 48 h, 62.5 µg/mL listed as 117

* * *

# METHOD SUMMARY: In vitro toxicity test (fluorimetric DNA assay, Hoechst)
# Type: cell-based, human
# ASSAY SETUP: human, IMR-32 neuroblastoma cells; 250 μg/ml; 48 h; Table 13; read-out: % survival
PROPERTY NAME: viability at 48 h, 250 µg/mL (%)
Write down the numeric answer in % and omit the unit.

viability at 48 h, 250 µg/mL for Ac-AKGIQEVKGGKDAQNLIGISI-NH2 [PRE 5] is 97

* * *

# MEASURED TARGET: PKC-ε (Homo sapiens)
# Sequence (Q02156 1-737): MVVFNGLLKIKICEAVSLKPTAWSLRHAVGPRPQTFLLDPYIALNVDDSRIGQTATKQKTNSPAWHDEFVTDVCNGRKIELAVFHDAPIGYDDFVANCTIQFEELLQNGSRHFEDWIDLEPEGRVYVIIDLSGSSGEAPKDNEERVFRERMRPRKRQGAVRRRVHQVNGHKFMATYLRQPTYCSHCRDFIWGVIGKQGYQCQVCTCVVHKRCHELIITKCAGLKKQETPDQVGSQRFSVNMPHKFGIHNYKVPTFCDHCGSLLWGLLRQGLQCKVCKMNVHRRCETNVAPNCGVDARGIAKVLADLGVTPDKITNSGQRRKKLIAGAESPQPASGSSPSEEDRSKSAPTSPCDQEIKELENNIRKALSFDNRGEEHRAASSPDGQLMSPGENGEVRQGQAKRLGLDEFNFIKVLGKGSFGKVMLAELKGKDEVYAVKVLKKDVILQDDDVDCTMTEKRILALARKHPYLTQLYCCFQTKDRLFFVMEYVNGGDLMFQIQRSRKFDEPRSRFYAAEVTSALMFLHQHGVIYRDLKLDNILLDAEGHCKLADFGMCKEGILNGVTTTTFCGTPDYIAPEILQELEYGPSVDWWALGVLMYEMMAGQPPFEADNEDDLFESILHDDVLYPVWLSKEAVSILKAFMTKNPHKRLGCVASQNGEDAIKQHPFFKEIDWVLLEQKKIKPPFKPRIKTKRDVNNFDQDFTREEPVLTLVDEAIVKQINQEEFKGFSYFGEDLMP
# METHOD SUMMARY: Competitive binding assay using cell extracts (Western blot)
# Design: cytoplasmic extracts from different cell lines expressing appropriate PKC isoforms; endogenous in cells; host or cells: CCD16Lu, LnCAP, Du145, MDAMB231, LS180
# ASSAY SETUP: Cell extract; PRE at 10X, 20X antibody concentration; Table 20
PROPERTY NAME: Affinity for PKC isoform ε

// solved cases for Affinity for PKC isoform ε follow
Ac-ISIGILNQADK-NH2 [PRE 10] : M/L
Ac-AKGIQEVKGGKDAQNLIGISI-NH2 [PRE 5] : L
Ac-KDAQNLI-NH2 [PRE 12] : —
ILEDKGGDAQNLIGISI [PRE 8] : L
Ac-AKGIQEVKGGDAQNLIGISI-NH2 [PRE 3] : L
Ac-KDAQNLIGISI-NH2 [PRE 4, Ac-KDAQNLIGISI-NH2] : H/L

Lab book: Affinity for PKC isoform ε of Ac-RDAQNLI-NH2 [PRE 13] noted as —

Entry Ac-ISIGILQNADK-NH2 [PRE 7] , Affinity for PKC isoform ε reported as —

For Ac-KDANQLIGISI-NH2 [PRE 6] the substance record lists Affinity for PKC isoform ε as M

Record Ac-RDAQNLIGISI-NH2 [PRE 11] . Reported Affinity for PKC isoform ε: —

Source: patent US20100041597A1
